Values were extracted from patent US20260174875A1.

Tested target: human amylin receptor (hAMYR3) (Homo sapiens, UniProt O60896+P30988)
Construct: host or cells: BHK cells (Hollex-1 line expressing hCTR(a) and CRE-Luc), further transfected with human RAMP3
Sequence (P30988 25-474): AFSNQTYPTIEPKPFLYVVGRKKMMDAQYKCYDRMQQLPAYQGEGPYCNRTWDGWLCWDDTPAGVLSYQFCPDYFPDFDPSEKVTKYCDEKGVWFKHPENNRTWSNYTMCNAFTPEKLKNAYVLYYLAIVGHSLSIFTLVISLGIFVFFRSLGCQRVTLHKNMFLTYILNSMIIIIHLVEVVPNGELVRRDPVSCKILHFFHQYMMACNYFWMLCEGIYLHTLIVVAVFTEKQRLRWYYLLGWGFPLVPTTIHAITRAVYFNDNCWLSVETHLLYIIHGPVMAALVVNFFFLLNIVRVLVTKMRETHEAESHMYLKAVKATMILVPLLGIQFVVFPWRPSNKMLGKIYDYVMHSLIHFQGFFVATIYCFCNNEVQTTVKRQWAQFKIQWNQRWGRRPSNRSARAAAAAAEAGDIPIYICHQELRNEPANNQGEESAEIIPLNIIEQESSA
Sequence (O60896 24-148): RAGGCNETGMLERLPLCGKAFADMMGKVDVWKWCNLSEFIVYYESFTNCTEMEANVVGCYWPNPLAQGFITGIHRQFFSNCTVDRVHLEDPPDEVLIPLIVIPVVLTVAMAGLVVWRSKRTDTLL
Assay method text: Amylin receptor assay, method A (CRE-luciferase reporter, BHK cells)
Assay type: cell-based
Assay context: method A, absence of HSA; read-out: hAMYR3 Potency, no HSA, EC50
pEC50: −log10 of the molar value. Numbered stars: 1 amine (or outer) side, 2 acyl side, 3 side chain; on linkers, the order of the positions; unused ones are H or OH. Square brackets hold non-standard residues; d marks the D form. Side chains are listed from the residue outwards. * marks the point of attachment. C20 diacid = O=C(O)CCCCCCCCCCCCCCCCCCC(=O)*; C18 diacid = O=C(O)CCCCCCCCCCCCCCCCC(=O)*; C16 diacid = O=C(O)CCCCCCCCCCCCCCC(=O)*; γGlu = O=C(O)[C@H](CCC(=O)[*:2])N[*:1]; AEEA = NCCOCCOCC(=O)O; Aib = CC(C)(N)C(=O)O

| Substance | pEC50 |
| --- | --- |
| H[Aib]HGTFTSDYSILLEEQAAREFIEWLLAGGPSSGALQAPGQAPGASHLSTAQTARLSAELHRLATLPK([AEEA-AEEA-γGlu-C18 diacid])TETGSGSP-NH2 [Compound 107] | 11.51 |
| Y[Aib]EGTFTSDYSILLEEQAAREFIEWLLAGGPSGGGGEASHLSTAQTQRLSAELHK([AEEA-AEEA-γGlu-C20 diacid])LATLPRTETGSGSP-NH2 [Compound 96] | 11.43 |
| Y[Aib]EGTFTSDYSILLEEQAAREFIEWLLAGGPSSGALQAPGQAPLASHLSTAQTQRLSAELHK([AEEA-AEEA-γGlu-C20 diacid])LATLPRTETGSGSP-NH2 [Compound 99] | 11.55 |
| H[Aib]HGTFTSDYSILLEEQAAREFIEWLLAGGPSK([AEEA-AEEA-γGlu-C20 diacid])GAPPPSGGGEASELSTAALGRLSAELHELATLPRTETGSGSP-NH2 [Compound 16] | 11.24 |
| H[Aib]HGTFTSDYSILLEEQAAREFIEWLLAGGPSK([AEEA-AEEA-γGlu-C18 diacid])GAPPPSGGGASELSTAALGRLSAELHRLATLPRTETGSGSP-NH2 [Compound 86] | 11.48 |
| Y[Aib]EGTFTSDYSILLEEQAAREFIEWLLAGGPSSGAGQAPGQAPGASHLSTAALARLSAELHK([AEEA-AEEA-γGlu-C18 diacid])LATLPRTETGSGSP-NH2 [Compound 114] | 11.64 |
| Y[Aib]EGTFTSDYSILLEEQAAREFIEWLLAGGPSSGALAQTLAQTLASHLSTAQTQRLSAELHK([AEEA-AEEA-γGlu-C16 diacid])LATLPRTETGSGSP-NH2 [Compound 59] | 11.41 |
| H[Aib]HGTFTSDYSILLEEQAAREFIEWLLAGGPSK([AEEA-AEEA-γGlu-C18 diacid])GAPPPSGGGEASELSTAALGRLSAELHRLATLPRTETGSGSP-NH2 [Compound 30] | 11.64 |
| Y[Aib]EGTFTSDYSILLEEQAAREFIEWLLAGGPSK([AEEA-AEEA-γGlu-C18 diacid])GGGGEGGGEGEASHLSTAQTQRLSAELHELATLPRTETGSGSP-NH2 [Compound 40] | 11.26 |
| Y[Aib]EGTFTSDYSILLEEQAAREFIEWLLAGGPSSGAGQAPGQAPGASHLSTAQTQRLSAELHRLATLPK([AEEA-AEEA-γGlu-C20 diacid])TETGSGSP-NH2 [Compound 76] | 11.51 |
| H[Aib]HGTFTSDYSILLEEQAAREFIEWLLAGGPSGGEASHLSTAQTQRLSAELHK([AEEA-AEEA-γGlu-C18 diacid])LATLPRTETGSGSP-NH2 [Compound 75] | 11.60 |
| H[Aib]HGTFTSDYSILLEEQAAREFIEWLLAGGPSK([AEEA-AEEA-γGlu-C18 diacid])GEASQLSTAALGRLSAELHQLATLPRTETGSGSP-NH2 [Compound 64] | 11.72 |
| Y[Aib]EGTFTSDYSILLEEQAAREFIEWLLAGGPSRGEASHLSTAQTQRLSAELHK([AEEA-AEEA-γGlu-C18 diacid])LATLPRTETGSGSP-NH2 [compound 68] | 11.59 |
| H[Aib]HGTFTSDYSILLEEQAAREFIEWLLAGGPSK([AEEA-AEEA-γGlu-C18 diacid])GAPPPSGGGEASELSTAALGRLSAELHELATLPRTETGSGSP-NH2 [Compound 15] | 11.30 |
| Y[Aib]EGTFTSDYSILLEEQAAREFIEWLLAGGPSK([AEEA-AEEA-γGlu-C18 diacid])GEASELSTAALGRLSAELHYLATLPRTETGSGSP-NH2 [Compound 29] | 11.51 |
| H[Aib]HGTFTSDYSILLEEQAAREFIEWLLAGGPSSGEASHLSTAALGRLSAELHRLATLPK([AEEA-AEEA-γGlu-C18 diacid])TETGSGSP-NH2 [Compound 90] | 11.26 |
| H[Aib]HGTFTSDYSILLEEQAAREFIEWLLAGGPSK([AEEA-AEEA-γGlu-C18 diacid])GALAQTLGTNEASELSTAALGRLSAELHRLATLPRTETGSGSP-NH2 [Compound 44] | 11.42 |
| H[Aib]HGTFTSDYSILLEEQAAREFIEWLLAGGPSRGEASHLSTAQTQRLSAELHK([AEEA-AEEA-γGlu-C18 diacid])LATLPRTETGSGSP-NH2 [Compound 69] | 11.46 |
| H[Aib]HGTFTSDYSILLEEQAAREFIEWLLAGGPSSGAGQAPGQAPGASHLSTAQTQRLSAK([AEEA-AEEA-γGlu-C18 diacid])LHRLATLPRTETGSGSP-NH2 [Compound 78] | 11.74 |
| Y[Aib]EGTFTSDYSILLEEQAAREFIEWLLAGGPSSK([γGlu-C20 diacid])APPPSGGGEASELSTAALGRLSAELHRLATLPRTETGSGSP-NH2 [Compound 42] | 11.47 |
| H[Aib]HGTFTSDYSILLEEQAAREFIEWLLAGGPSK([AEEA-AEEA-γGlu-C18 diacid])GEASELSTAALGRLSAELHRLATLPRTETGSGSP-NH2 [Compound 25] | 11.49 |
